The measured values listed here are drawn from ChEMBL document CHEMBL5634116.

# SYSTEM TESTED: Retinoic acid receptor gamma (Homo sapiens)
# Sequence (P13631 whole entry): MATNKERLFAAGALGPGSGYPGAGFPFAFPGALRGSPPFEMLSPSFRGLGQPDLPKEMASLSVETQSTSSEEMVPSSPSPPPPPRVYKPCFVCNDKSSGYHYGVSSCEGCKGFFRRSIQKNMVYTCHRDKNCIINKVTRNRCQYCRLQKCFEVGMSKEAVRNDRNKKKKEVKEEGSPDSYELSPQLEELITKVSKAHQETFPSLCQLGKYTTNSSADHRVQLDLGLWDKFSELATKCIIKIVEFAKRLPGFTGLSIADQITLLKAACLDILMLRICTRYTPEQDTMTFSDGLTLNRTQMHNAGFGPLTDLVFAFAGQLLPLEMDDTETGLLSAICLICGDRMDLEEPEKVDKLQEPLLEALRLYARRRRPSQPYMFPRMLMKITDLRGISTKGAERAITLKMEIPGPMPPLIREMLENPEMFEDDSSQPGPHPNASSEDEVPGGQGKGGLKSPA
# PROTOCOL TEXT: Agonist activity at recombinant human RAR-gamma expressed in mammalian cells by luciferase reporter gene based transactivation assay
pEC50: −log10 of the molar value.
OUTCOME MEASURE: pEC50

SMILES RECORD	pEC50
CC1(C)CC=C(c2ccccc2)c2cc(C(=O)Nc3ccc(C(=O)O)cc3)ccc21	6.25

[A] Cc1ccc(C2=CC(C)(C)Oc3ccc(C(=O)Nc4ccc(C(=O)O)cc4)cc32)cc1
[B] CC1(C)CC=C(c2ccccc2)c2cc(/C=C/c3ccc(C(=O)O)cc3)ccc21
[Q] Hey, which is lower on measured pEC50, A or B ? Kindly state the label of the option you pick.
[A] A
(A: 6.28, B: 6.92)
